Target: LRRK2 WT (Homo sapiens, UniProt Q5S007)
Sequence (Q5S007 whole entry): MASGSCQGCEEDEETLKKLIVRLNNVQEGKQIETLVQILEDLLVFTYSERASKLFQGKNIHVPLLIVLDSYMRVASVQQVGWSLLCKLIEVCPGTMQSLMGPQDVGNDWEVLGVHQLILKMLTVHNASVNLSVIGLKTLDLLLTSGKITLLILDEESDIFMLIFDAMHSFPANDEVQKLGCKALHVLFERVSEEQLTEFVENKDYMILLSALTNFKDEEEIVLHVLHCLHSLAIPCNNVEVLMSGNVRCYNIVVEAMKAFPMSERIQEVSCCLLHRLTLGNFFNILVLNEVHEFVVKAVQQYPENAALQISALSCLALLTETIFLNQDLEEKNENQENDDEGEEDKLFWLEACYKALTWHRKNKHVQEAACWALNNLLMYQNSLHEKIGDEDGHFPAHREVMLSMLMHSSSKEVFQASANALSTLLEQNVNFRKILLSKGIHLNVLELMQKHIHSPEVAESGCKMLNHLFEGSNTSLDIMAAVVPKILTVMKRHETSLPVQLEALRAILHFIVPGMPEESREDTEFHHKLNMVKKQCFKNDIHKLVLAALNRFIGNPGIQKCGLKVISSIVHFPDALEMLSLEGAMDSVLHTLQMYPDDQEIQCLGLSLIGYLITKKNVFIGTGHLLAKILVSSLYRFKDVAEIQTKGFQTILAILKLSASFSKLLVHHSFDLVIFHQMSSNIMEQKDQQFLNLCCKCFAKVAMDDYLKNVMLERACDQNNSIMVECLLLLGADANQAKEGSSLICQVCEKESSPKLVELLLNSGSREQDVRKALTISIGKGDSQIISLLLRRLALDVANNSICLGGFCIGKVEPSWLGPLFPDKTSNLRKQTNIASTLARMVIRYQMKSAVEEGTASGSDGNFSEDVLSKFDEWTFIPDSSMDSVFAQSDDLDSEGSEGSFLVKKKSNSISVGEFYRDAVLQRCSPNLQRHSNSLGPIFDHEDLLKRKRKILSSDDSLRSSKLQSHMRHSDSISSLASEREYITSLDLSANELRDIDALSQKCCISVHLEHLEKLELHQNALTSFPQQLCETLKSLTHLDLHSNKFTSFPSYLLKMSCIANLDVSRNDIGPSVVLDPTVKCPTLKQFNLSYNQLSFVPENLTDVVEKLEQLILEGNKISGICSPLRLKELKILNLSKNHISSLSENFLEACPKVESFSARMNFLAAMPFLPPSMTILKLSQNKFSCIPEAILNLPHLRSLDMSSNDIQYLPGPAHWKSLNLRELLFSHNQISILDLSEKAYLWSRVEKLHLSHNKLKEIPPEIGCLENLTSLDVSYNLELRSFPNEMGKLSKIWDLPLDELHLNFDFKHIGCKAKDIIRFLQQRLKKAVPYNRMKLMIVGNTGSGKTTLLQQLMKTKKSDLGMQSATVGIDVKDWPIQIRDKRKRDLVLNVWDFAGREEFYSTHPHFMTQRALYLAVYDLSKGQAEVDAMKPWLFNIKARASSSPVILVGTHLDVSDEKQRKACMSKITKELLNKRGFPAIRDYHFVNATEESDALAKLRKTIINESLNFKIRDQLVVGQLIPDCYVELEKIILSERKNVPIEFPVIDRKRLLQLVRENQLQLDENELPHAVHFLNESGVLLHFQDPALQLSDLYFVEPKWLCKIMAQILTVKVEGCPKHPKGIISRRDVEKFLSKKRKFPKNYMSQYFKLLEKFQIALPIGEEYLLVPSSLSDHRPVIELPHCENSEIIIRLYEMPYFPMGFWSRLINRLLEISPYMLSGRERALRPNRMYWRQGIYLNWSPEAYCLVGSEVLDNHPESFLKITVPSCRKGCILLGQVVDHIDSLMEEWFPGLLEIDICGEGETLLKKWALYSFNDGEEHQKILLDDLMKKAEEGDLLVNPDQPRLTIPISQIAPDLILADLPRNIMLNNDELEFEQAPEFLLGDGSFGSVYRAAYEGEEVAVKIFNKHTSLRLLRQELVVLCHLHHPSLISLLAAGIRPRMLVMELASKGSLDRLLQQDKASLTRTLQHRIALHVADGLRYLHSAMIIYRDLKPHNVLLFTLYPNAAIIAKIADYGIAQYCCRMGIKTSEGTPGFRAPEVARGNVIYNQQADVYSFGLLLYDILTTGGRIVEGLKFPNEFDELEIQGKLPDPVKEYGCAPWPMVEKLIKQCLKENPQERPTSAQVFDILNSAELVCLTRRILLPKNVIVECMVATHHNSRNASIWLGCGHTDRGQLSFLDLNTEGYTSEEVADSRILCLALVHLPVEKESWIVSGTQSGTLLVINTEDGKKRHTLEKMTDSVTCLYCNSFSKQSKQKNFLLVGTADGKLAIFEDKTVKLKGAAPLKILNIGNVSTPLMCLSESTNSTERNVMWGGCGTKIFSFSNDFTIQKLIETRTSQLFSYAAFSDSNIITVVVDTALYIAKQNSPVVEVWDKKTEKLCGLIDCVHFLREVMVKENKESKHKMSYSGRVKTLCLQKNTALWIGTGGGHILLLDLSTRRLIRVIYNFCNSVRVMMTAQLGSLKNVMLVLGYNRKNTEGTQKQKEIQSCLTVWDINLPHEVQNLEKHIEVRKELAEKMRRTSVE
Test: Cellular phospho-LRRK2 S935 HTRF assay, WT-HEK293 cells
Type: cell-based
Conditions: pS935 LRRK2 Cellular Activity Assay; HEK293 cells stably expressing human LRRK2 WT, 2 hr incubation
property_name: IC50 (µM)

1) Cc1cc2cnn(-c3cnn(C)c3)c2cc1[C@H]1C[C@@H]2CN(C(=O)c3snnc3C)C[C@@H]2C1 [Compound 9] : 8.43

(A) Cc1cc2cnn(-c3cnn(C)c3)c2cc1C1=C[C@@H]2CNC[C@@H]2C1 (racemic) [Compound 1]
(B) Cc1cc2cnn(-c3cnn(C)c3)c2cc1[C@H]1C[C@@H]2CN(C3CCCOC3)C[C@@H]2C1 (mixture of isomers) [Compound 11]
Prompt line: Determine, for A and B , which has the greater value of IC50. Choose, then provide that item's label.
Response line: A

* * *

Biological target: LRRK2 WT (Homo sapiens)
Experiment: Biochemical LRRK2 LanthaScreen TR-FRET kinase assay, wild type
pIC50: −log10 of the molar value.
property_name: pIC50

1. Cc1cc2cnn(-c3cnn(C)c3)c2cc1[C@H]1C[C@@H]2CN(C(=O)c3snnc3C)C[C@@H]2C1 : 6.81

(A) Cc1cc2cnn(-c3cnn(C)c3)c2cc1C1=C[C@@H]2CN(C3CCOCC3)C[C@@H]2C1 (racemic)
(B) Cc1cc2cnn(-c3cnn(C)c3)c2cc1[C@H]1C[C@@H]2CN(C3CCCOC3)C[C@@H]2C1 (mixture of isomers)
Prompt line: Determine, for A and B , which has the greater value of pIC50. Choose, then provide that item's label.
Response line: B

(A) Cc1cc2cnn(-c3cnn(C)c3)c2cc1C1=C[C@@H]2CN(C(=O)OC(C)(C)C)C[C@@H]2C1 (racemic)
(B) Cc1cc2cnn(-c3cnn(C)c3)c2cc1[C@@H]1C[C@@H]2CN(C(=O)c3snnc3C)C[C@@H]2C1
Prompt line: For A and B , which recorded pIC50 is lower? Choose, then provide that item's label.
Response line: A
(A: 5.64, B: 6.19)

* * *

Biological target: LRRK2 WT (Homo sapiens, UniProt Q5S007)
Assay: Biochemical LRRK2 LanthaScreen TR-FRET kinase assay, wild type
property_name: IC50 (nM)

1. Cc1cc2cnn(-c3cnn(C)c3)c2cc1C1=C[C@@H]2CNC[C@@H]2C1 (racemic) : 113

(a) Cc1cc2cnn(-c3cnn(C)c3)c2cc1[C@@H]1C[C@@H]2CN(C3CCCOC3)C[C@@H]2C1 (mixture of isomers)
(b) COC(=O)N1CCCC(N2C[C@H]3C[C@@H](c4cc5c(cnn5-c5cnn(C)c5)cc4C)C[C@H]3C2)C1 (mixture of isomers)
Prompt line: For a and b , which recorded IC50 is lower? Choose, then provide that item's label.
Response line: a
